assayProtocol: Lipophilicity, log K of the compound by RP-HPLC analysis
Type: physicochemical
// NB: equality with 0.4 counts as NOT MET; only log K strictly below is MET

Determine whether this compound shows log K lower than 0.4 (ties excluded): CCCCCCCCCCCCOC(=O)CCCCCN1C(=O)CCC1=O NOT MET

Please answer likewise for CCCCCCCCCCOC(=O)CCCCCN1C(=O)CCC1=O NOT MET

Please answer likewise for CCCCCCCCCOC(=O)CCCCCN1C(=O)CCC1=O NOT MET

Please answer likewise for CCCCCCCCCCOC(=O)C(CCCCN1C(=O)CCC1=O)N1CCCCCC1=O (stereo not drawn) NOT MET

Please answer likewise for CCCCCCCCOC(=O)C(CCCCN1C(=O)CCC1=O)N1CCCCCC1=O (stereo not drawn) MET

Please answer likewise for CCCCCCCCCCCCOC(=O)C(CCCCN1C(=O)CCC1=O)N1CCCCCC1=O (stereo not drawn) NOT MET

Please answer likewise for CCCCCCCOC(=O)CCCCCN1C(=O)CCC1=O MET

----------
assayProtocol: Potentiation of theophylline transdermal permeation in pig ear skin assessed as enhancement ratio at 20 mg after 24 hrs by Franz diffusion cell method
Format: ADME, Sus scrofa
assayMetric: Ratio
Please reply with the number alone, leaving off any unit.

If you can, please state the reported Ratio value of CCCCCCCOC(=O)CCCCCN1C(=O)CCC1=O . 2.64

Please answer likewise for CCCCCCCCCCCOC(=O)C(CCCCN1C(=O)CCC1=O)N1CCCCCC1=O (configuration not stated) 1.81

Please answer likewise for CCCCCCCC/C=C\CCCCCCCC(=O)O 1.13

Please answer likewise for CCCCCCCCCCCOC(=O)CCCCCN1C(=O)CCC1=O 3.51

Please answer likewise for CCCCCCCCOC(=O)C(CCCCN1C(=O)CCC1=O)N1CCCCCC1=O (configuration not stated) 2.24

Please answer likewise for CCCCCCCCCOC(=O)C(CCCCN1C(=O)CCC1=O)N1CCCCCC1=O (configuration not stated) 1.87

Please answer likewise for CCCCCCOC(=O)CCCCCN1C(=O)CCC1=O 2.71

----------
assayProtocol: Lipophilicity, log K of the compound by RP-HPLC analysis
Format: physicochemical
For each of the compounds below, state its log K.
Please reply with the number alone, leaving off any unit.

If you can, please state the reported log K value of CCCCCCOC(=O)CCCCCN1C(=O)CCC1=O . -0.0201

Please answer likewise for CCCCCCCCCCCOC(=O)CCCCCN1C(=O)CCC1=O 0.8368

Please answer likewise for CCCCCCCCCCCOC(=O)C(CCCCN1C(=O)CCC1=O)N1CCCCCC1=O (stereo unspecified) 0.7462

Please answer likewise for CCCCCCCOC(=O)C(CCCCN1C(=O)CCC1=O)N1CCCCCC1=O (stereo unspecified) 0.0658

Please answer likewise for CCCCCCOC(=O)C(CCCCN1C(=O)CCC1=O)N1CCCCCC1=O (stereo unspecified) -0.0764

Please answer likewise for CCCCCCCCOC(=O)CCCCCN1C(=O)CCC1=O 0.3239

----------
assayProtocol: Potentiation of theophylline transdermal permeation in pig ear skin assessed as enhancement ratio at 20 mg after 24 hrs by Franz diffusion cell method
Format: ADME, Sus scrofa
assayMetric: Ratio
Please reply with the number alone, leaving off any unit.

If you can, please state the reported Ratio value of CCCCCCCCOC(=O)CCCCCN1C(=O)CCC1=O . 2.55

Please answer likewise for CCCCCCCCCOC(=O)CCCCCN1C(=O)CCC1=O 3.14

Please answer likewise for CCCCCCCCCCOC(=O)CCCCCN1C(=O)CCC1=O 3.54

Please answer likewise for CCCCCCCCCCCCOC(=O)CCCCCN1C(=O)CCC1=O 2.93

Please answer likewise for CCCCCCCCCCCCOC(=O)C(CCCCN1C(=O)CCC1=O)N1CCCCCC1=O (stereo unspecified) 2.48

Please answer likewise for CCCCCCOC(=O)C(CCCCN1C(=O)CCC1=O)N1CCCCCC1=O (stereo unspecified) 1.93

This collection of values is drawn from ChEMBL document CHEMBL2057202.
